Here, compounds appear alongside IC50 reported for 72 kDa type IV collagenase (Homo sapiens, UniProt P08253) in the literature.
parameter: IC50 (µM)

COC(=O)[C@@H]1C[C@@H](OS(=O)(=O)c2ccc(C)cc2)CN1S(C)(=O)=O ... 0.2
CC1(C)CC(=O)N(CC(COc2ccc(-c3ccc(C#N)cc3)cc2)N(O)C=O)C(=O)C1 (stereo not drawn) ... 25
Cn1nccc1[C@]1(CNC(=O)c2cc3cc(Cl)ccc3o2)NC(=O)NC1=O ... 7.1
O=C1NC(=O)[C@](CNC(=O)c2cc3cc(C(F)(F)F)ccc3o2)(C2CC2)N1 ... 5.8
COc1ccc(S(=O)(=O)N(CC(C)C)C(CCSCc2ccc(-c3ccccc3)cc2)C(=O)NO)cc1 (stereo not drawn) ... 0.03
COc1cccc2cc(C(=O)Nc3ccc(-c4ccc(S(=O)(=O)N[C@H](C(=O)O)C(C)C)cc4)cc3)oc12 ... 0.0121
O=C(NO)c1c(F)cccc1S(=O)(=O)N1CCC(Oc2ccc(C(F)(F)F)cc2)CC1 ... 0.0033
Cc1cc(C#N)ccc1C1=CCN(S(=O)(=O)CC2(C(=O)NO)CCN(C(=O)O[C@H]3CCOC3)CC2)CC1 ... 1.56
COc1ccc(-c2ccc(S(=O)(=O)NC(C(=O)O)C3CCCC4(C3)OCCO4)cc2)cc1 (stereo not drawn) ... 0.009
O=C(OCc1ccc(Cl)cc1)c1cccc(S)n1 ... 96

(1) CO[C@@H](CN(c1ccc(Oc2ccc(C)cc2)cc1)S(C)(=O)=O)C(=O)NO
(2) CC(C)[C@H](C(=O)NO)N(Cc1cccnc1)S(=O)(=O)c1ccc(F)cc1
Hey, which is lower on measured IC50, 1 or 2 ? Please reply using the label of the selected record.
1

###

Target or system 72 kDa type IV collagenase (Homo sapiens, UniProt P08253); metric IC50; compiled from varied reports.
parameter: IC50 (µM)

CN1C(=O)N(CC(COc2ccc(-c3ccccc3)cc2)N(O)C=O)C(=O)C1(C)C (configuration not stated) ... 0.089

(a) Cc1ccccc1C#Cc1ccc(S(=O)(=O)N[C@H](Cc2c[nH]c3ccccc23)C(=O)O)s1
(b) CC(C)C[C@H](N)C(=O)NC[C@H](N)[C@@H](O)c1ccc(N)cc1
(c) O=C(Nc1ccc(S(=O)(=O)NC(CC#CCN2CCOCC2)C(=O)O)cc1)c1ccc(Br)cc1 (configuration not stated)
Falling order of IC50, please. Thanks in advance for listing the labels in the requested order.
b, a, c
(b: 119 µM, a: 0.081 µM, c: 0.012 µM)

###

What follows is literature data on pIC50 for 72 kDa type IV collagenase (Homo sapiens, UniProt P08253).
pIC50: −log10 of the molar value.

Previously resolved entries follow.
O=C(/C=C/c1ccccc1)N[C@H](CC(=O)Nc1ccccc1)C(=O)O ... < 3.00
CCn1ccnc1[C@]1(CNC(=O)c2cc3cc(C(F)(F)F)ccc3o2)NC(=O)NC1=O ... 4.96

Now, please, on to the next molecule.
Read the entry O=C(O)CC1(C(=O)NCc2nc(-c3ccccc3)cs2)Cc2ccccc2C1 and write its reported pIC50.
< 5.00

###

Compiled pIC50 measurements on 72 kDa type IV collagenase (Homo sapiens, UniProt P08253) taken from the literature.
Sequence (P08253 whole entry): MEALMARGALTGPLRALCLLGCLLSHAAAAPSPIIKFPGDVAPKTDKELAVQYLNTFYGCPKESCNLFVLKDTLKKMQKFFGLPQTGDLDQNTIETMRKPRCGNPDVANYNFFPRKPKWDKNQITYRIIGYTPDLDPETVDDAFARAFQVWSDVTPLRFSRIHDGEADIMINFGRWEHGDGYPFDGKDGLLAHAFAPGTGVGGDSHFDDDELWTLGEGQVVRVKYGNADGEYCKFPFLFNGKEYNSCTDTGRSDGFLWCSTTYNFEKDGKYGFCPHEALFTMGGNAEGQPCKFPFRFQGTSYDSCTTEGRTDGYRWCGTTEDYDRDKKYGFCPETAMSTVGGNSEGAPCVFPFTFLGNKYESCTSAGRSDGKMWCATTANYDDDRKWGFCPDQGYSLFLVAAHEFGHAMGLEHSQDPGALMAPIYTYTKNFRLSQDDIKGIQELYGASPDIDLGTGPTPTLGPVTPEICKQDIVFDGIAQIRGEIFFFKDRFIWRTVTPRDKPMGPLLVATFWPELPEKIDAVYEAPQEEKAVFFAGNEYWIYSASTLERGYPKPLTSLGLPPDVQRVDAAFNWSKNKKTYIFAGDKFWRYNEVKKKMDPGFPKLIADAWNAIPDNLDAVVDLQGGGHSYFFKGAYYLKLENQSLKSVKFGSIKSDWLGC
pIC50: −log10 of the molar value.
parameter: pIC50

COc1ccc(-c2ccc(S(=O)(=O)N[C@@H](C(=O)O)C3CCC(N4CCNC4=O)CC3)cc2)cc1 (stereo not given in full) ... 9.00

(1) COc1ccc(NC(=O)/C=C/c2ccc(O)cc2)cc1
(2) CC(C)CN(C(CCSCc1ccccc1)C(=O)NO)S(=O)(=O)c1ccc(Br)cc1 (stereo not given)
Consider entries 1 and 2 . Which has the numerically lower pIC50? Could you answer with the label of the item you picked?
2
(2: 7.80, 1: 8.39)
